From: the Kinase Knowledgebase extract (Sharma et al. 2016)

Heads up, these compounds all have IC50 values measured for PIK3CG (human).

Reference set, count: 5
Cn1nc(-c2ccncc2)c2cnc(N)nc21 ... < 2000 nM
CC(C)CNC(=O)c1cccc(-c2nn(C)c3nc(N)ncc23)c1 ... < 2000 nM
Cn1nc(-c2ccc3cc[nH]c3c2)c2cnc(N)nc21 ... < 2000 nM
CNc1ncc2c(-c3ccc(OC)c(F)c3)nn(C)c2n1 ... < 2000 nM
Cc1[nH]c2ccc(-c3nn(C)c4nc(N)ncc34)cc2c1C ... < 2000 nM

Next compound, IC50 to be filled in.
Here CNS(=O)(=O)c1cc(-c2nn(C)c3nc(N)ncc23)c(OC)cc1OC was tested on PIK3CG (human), and its IC50 came to < 2000 nM
